meta.source: patent US9758484B2

Recorded solubility at 30 min by entry
Experiment: Solubility tests of nitroxoline and nitroxoline salts in aqueous buffers and water
Type: physicochemical
Conditions: pH 6.0 acetate buffer, 25 °C, pH 6, aqueous buffer, thermodynamic from solid, pH=6.0 buffer, 25±2° C.; read-out: Solubility pH 6
Experimental: 1) Aqueous buffer solutions with varying pH were prepared as follows: • i. […]
Structures can show the parent of a compound that is named as a salt.
METRIC_NAME: solubility at 30 min

- O=[N+]([O-])c1ccc([O-])c2ncccc12.[Na+] [APL-1072, Nitroxoline Sodium Salt]: < 100 µg/mL
- O=[N+]([O-])c1ccc(O)c2ncccc12 [APL-1075, Nitroxoline HNO3 Salt]: < 100 µg/mL
- Br.O=[N+]([O-])c1ccc(O)c2ncccc12 [APL-1074, Nitroxoline HBr Salt]: < 100 µg/mL
- Cl.O=[N+]([O-])c1ccc(O)c2ncccc12 [APL-1071, Nitroxoline HCl Salt]: < 100 µg/mL
- O=[N+]([O-])c1ccc([O-])c2ncccc12.[K+] [APL-1077, Nitroxoline Potassium Salt]: < 100 µg/mL

---

Assay: Solubility tests of nitroxoline and nitroxoline salts in aqueous buffers and water
Assay type: physicochemical
Details: pH 8.0 phosphate buffer, 25 °C, pH 8, aqueous buffer, thermodynamic from solid, pH=8.0 buffer, 25±2° C.; read-out: Solubility pH 8.0
METRIC_NAME: solubility at 30 min

• O=[N+]([O-])c1ccc([O-])c2ncccc12.[Na+] [APL-1072, Nitroxoline Sodium Salt] = < 100 µg/mL
• Br.O=[N+]([O-])c1ccc(O)c2ncccc12 [APL-1074, Nitroxoline HBr Salt] = < 100 µg/mL
• Cl.O=[N+]([O-])c1ccc(O)c2ncccc12 [APL-1071, Nitroxoline HCl Salt] = < 100 µg/mL
• O=[N+]([O-])c1ccc([O-])c2ncccc12.[K+] [APL-1077, Nitroxoline Potassium Salt] = 1000 to 10000 µg/mL

---

Test: Solubility tests of nitroxoline and nitroxoline salts in aqueous buffers and water
Assay type: physicochemical
Conditions: pH 1.2 buffer (dilute HCl), 25 °C, pH 1.2, simulated gastric fluid, thermodynamic from solid, pH=1.2 buffer, 25±2° C.; read-out: Solubility pH 1.2
METRIC_NAME: solubility at 30 min

• O=[N+]([O-])c1ccc([O-])c2ncccc12.[Na+] [APL-1072, Nitroxoline Sodium Salt] = < 100 µg/mL
• Cl.O=[N+]([O-])c1ccc(O)c2ncccc12 [APL-1071, Nitroxoline HCl Salt] = < 100 µg/mL
• O=[N+]([O-])c1ccc([O-])c2ncccc12.[K+] [APL-1077, Nitroxoline Potassium Salt] = < 100 µg/mL
• Br.O=[N+]([O-])c1ccc(O)c2ncccc12 [APL-1074, Nitroxoline HBr Salt] = 1000 to 10000 µg/mL

---

Recorded solubility at 30 min by entry
Assay: Solubility tests of nitroxoline and nitroxoline salts in aqueous buffers and water
Type: physicochemical
Settings: distilled water, 25 °C, water, thermodynamic from solid, distilled water, 25±2° C.; read-out: Solubility water
METRIC_NAME: solubility at 30 min

* O=[N+]([O-])c1ccc([O-])c2ncccc12.[Na+] [APL-1072, Nitroxoline Sodium Salt] | 1000 to 10000 µg/mL
* O=[N+]([O-])c1ccc([O-])c2ncccc12.[K+] [APL-1077, Nitroxoline Potassium Salt] | 1000 to 10000 µg/mL
* Br.O=[N+]([O-])c1ccc(O)c2ncccc12 [APL-1074, Nitroxoline HBr Salt] | < 100 µg/mL
* Cl.O=[N+]([O-])c1ccc(O)c2ncccc12 [APL-1071, Nitroxoline HCl Salt] | < 100 µg/mL
